// provenance: ChEMBL document CHEMBL2439963

Experiment: Displacement of calixarene-LCG from synthetic H3K27me3 peptide by isothermal titration calorimetry analysis
reported metric: pKd
Expect pKd as a plain number equal to -log10 of the molar concentration.

What value of pKd has been reported for the following compound? `O=S(=O)(O)c1cc2c(O)c(c1)Cc1cc(S(=O)(=O)O)cc(c1O)Cc1cc(S(=O)(=O)O)cc(c1O)Cc1cc(-c3ccccc3)cc(c1O)C2`
5.39
